Sourced from the supplement of paper PMC9948646

# System: gramicidin D channels in DC22:1PC lipid vesicles (bilayer-modifying potency)
# METHOD_DESCRIPTION: initial Tl+ fluorescence quench rate relative to no-drug control (NormRate, gramicidin monomer-dimer shift) (ratio (fold of control)); higher = stronger bilayer-modifying effect (equilibrium shifted toward conducting dimers), active = 1.5 or more
# TEST_PARAMETERS: 10 µM; lipid concentration 50 µM; temperature: 25 °C
Give one outcome, nothing more. List: Yes for active, No for inactive

- [H]/N=C(\N)c1ccc(OCCCCCOc2ccc(/C(N)=N\[H])cc2)cc1: No
- CCc1c(C)nc(-n2nc(C)cc2NC(=O)c2ccccc2SC)[nH]c1=O: No
- COc1cccc(-c2nc3c(N4CCCC4)cccc3n2C[C@H]2CCCN2)n1: No
- COc1ccc(C2(C(=O)Nc3ccc(Br)cc3)CCCC2)cc1: No
- Cc1ccc(Oc2ccc(NC(=O)CNc3ccccc3N3CCCC3=O)cc2)cc1: Yes

Hi, sorry to bother you, what did the test record for `CN(C(=O)c1cc2c(-c3cncnc3)cccc2[nH]1)c1ccccc1` ?
No

What was the test verdict on `O=C(NCc1cc(Cl)cc(Cl)c1)c1c(C(F)(F)F)nc2ccccn12` ?
No

Dear all, I need the recorded test outcome for `CC(=O)NC[C@H]1CN(c2ccc(-c3ccc(CNCc4cn[nH]n4)cc3)c(F)c2)C(=O)O1` , thank you.
No

Write down the call the test reported for this compound. Item: `Cc1cccc(Cn2ccc(NC(=O)c3ccc4c(c3)OCO4)n2)c1`
No
